Species: Rattus norvegicus
PROTOCOL_DETAILS: Open TG-GATES - Regimen: Daily Repeat
Format: toxicity, organism-based, Sprague-Dawley
Set-up: regimen Daily Repeat, gender Male, age 6 weeks
TEST_CONTEXT: in vivo, po, 100 mg/kg, […], tissue Plasma, route gavage, dose level Low, time 28 day
MEASURED_PROPERTY: CRE
Reply with a number, then the unit it belongs to.

Below, 3 molecules whose answers are already recorded.
[
  {
    "MOLECULE": "O=C(O)c1ccccc1Nc1ccccc1",
    "VALUE_OBSERVED": "0.3 mg/dL"
  },
  {
    "MOLECULE": "CC(S)C(=O)NCC(=O)O (centres undefined)",
    "VALUE_OBSERVED": "0.2 mg/dL"
  },
  {
    "MOLECULE": "CCCCNC(=O)NS(=O)(=O)c1ccc(C)cc1 [TOLBUTAMIDE]",
    "VALUE_OBSERVED": "0.3 mg/dL"
  }
]

Now for another entry.
Entry "CC(=O)[C@@]1(O)CC[C@H]2[C@@H]3C=C(Cl)C4=CC(=O)CC[C@]4(C)[C@H]3CC[C@@]21C" has what CRE?
0.2 mg/dL

====

Species on record: Rattus norvegicus
PROTOCOL_DETAILS: Open TG-GATES - Regimen: Daily Repeat
Assay type: toxicity, organism-based, Sprague-Dawley
Parameters: regimen Daily Repeat, gender Male, age 6 weeks
TEST_CONTEXT: in vivo, po, 0 mg/kg, […], tissue Blood, route gavage, dose level Control, time 7 day
MEASURED_PROPERTY: Bas

[
  {
    "COMPOUND": "CCCCC1C(=O)N(c2ccccc2)N(c2ccccc2)C1=O [PHENYLBUTAZONE]",
    "Bas": "0%"
  },
  {
    "COMPOUND": "CN(CCOc1ccc(CC2SC(=O)NC2=O)cc1)c1ccccn1.O=C(O)/C=C\\C(=O)O (stereo not drawn) [ROSIGLITAZONE MALEATE]",
    "Bas": "0%"
  },
  {
    "COMPOUND": "CC(S)C(=O)NCC(=O)O (stereo not drawn) [TIOPRONIN]",
    "Bas": "0%"
  }
]

Quick check: Bas of CCO [ALCOHOL] ?
0%

CCCCNC(=O)NS(=O)(=O)c1ccc(C)cc1 [TOLBUTAMIDE] , same question.
0.4%

Try O=C(O)c1ccccc1Nc1ccccc1 [FENAMIC ACID] next.
0.8%

And then "CCN(CC)C(=S)SSC(=S)N(CC)CC" , what is it?
0%

Ok, now O=c1ccc2ccccc2o1 [COUMARIN]
0%

====

Organism: Rattus norvegicus
PROTOCOL_DETAILS: Open TG-GATES - Regimen: Daily Repeat
Assay type: toxicity, organism-based, Sprague-Dawley
Set-up: regimen Daily Repeat, gender Male, age 6 weeks
TEST_CONTEXT: in vivo, po, 100 mg/kg, […], tissue Plasma, route gavage, dose level Low, time 14 day
MEASURED_PROPERTY: LDH (IU/L)
Write the number in IU/L without appending the unit.

Would you please look over these solved cases?
[
  {
    "COMPOUND": "O=C(O)c1ccccc1Nc1ccccc1 [FENAMIC ACID]",
    "VALUE_OBSERVED": 95
  },
  {
    "COMPOUND": "CCCCNC(=O)NS(=O)(=O)c1ccc(C)cc1 [TOLBUTAMIDE]",
    "VALUE_OBSERVED": 60.8
  },
  {
    "COMPOUND": "CC(=O)[C@@]1(O)CC[C@H]2[C@@H]3C=C(Cl)C4=CC(=O)CC[C@]4(C)[C@H]3CC[C@@]21C [CHLORMADINONE]",
    "VALUE_OBSERVED": 144.4
  }
]

Lab note: next compound to report on.
Look up LDH: CC(S)C(=O)NCC(=O)O (centres undefined) [TIOPRONIN]
135.6

====

Organism: Rattus norvegicus
PROTOCOL_DETAILS: Open TG-GATES - Regimen: Daily Repeat
Format: toxicity, organism-based, Sprague-Dawley
Parameters: regimen Daily Repeat, gender Male, age 6 weeks
TEST_CONTEXT: in vivo, po, 300 mg/kg, […], tissue Plasma, route gavage, dose level Middle, time 28 day
Overview of recorded TC for various compounds
Quick note: give the figure in mg/dL, leave out the unit.

Answered examples (3):
[
  {
    "COMPOUND": "O=C(O)c1ccccc1Nc1ccccc1",
    "TC, mg/dL": 82.2
  },
  {
    "COMPOUND": "CC(S)C(=O)NCC(=O)O (centres undefined)",
    "TC, mg/dL": 72
  },
  {
    "COMPOUND": "CC(=O)[C@@]1(O)CC[C@H]2[C@@H]3C=C(Cl)C4=CC(=O)CC[C@]4(C)[C@H]3CC[C@@]21C",
    "TC, mg/dL": 89.2
  }
]

The record that follows has no TC shown yet.
Would you kindly share the measured TC for CCCCNC(=O)NS(=O)(=O)c1ccc(C)cc1 [TOLBUTAMIDE] ?
74.6

====

Reported values of ALT for individual entries
Species on record: Rattus norvegicus
PROTOCOL_DETAILS: Open TG-GATES - Regimen: Single
Type: toxicity, organism-based, Sprague-Dawley
Design: regimen Single, gender Male, age 6 weeks
TEST_CONTEXT: in vivo, po, 0 mg/kg, 9 h, tissue Plasma, route gavage, dose level Control
Use IU/L as the unit, but write only the number.

[
  {
    "COMPOUND": "CC(S)C(=O)NCC(=O)O (centres undefined) [TIOPRONIN]",
    "UNIT_ANNOTATION": "IU/L",
    "ALT": 36.2
  },
  {
    "COMPOUND": "NS(=O)(=O)c1cc(C(=O)O)c(NCc2ccco2)cc1Cl [FUROSEMIDE]",
    "UNIT_ANNOTATION": "IU/L",
    "ALT": 40.8
  },
  {
    "COMPOUND": "CC(=O)[C@@]1(O)CC[C@H]2[C@@H]3C=C(Cl)C4=CC(=O)CC[C@]4(C)[C@H]3CC[C@@]21C [CHLORMADINONE]",
    "UNIT_ANNOTATION": "IU/L",
    "ALT": 36.8
  },
  {
    "COMPOUND": "CN(C)CCCN1c2ccccc2Sc2ccc(Cl)cc21 [CHLORPROMAZINE]",
    "UNIT_ANNOTATION": "IU/L",
    "ALT": 30.6
  }
]

Quick check: ALT of O=c1ccc2ccccc2o1 [COUMARIN] ?
31.2

Next compound up: CCCCNC(=O)NS(=O)(=O)c1ccc(C)cc1 [TOLBUTAMIDE]
38.6

====

Organism: Rattus norvegicus
PROTOCOL_DETAILS: Open TG-GATES - Regimen: Daily Repeat
Format: toxicity, organism-based, Sprague-Dawley
Set-up: regimen Daily Repeat, gender Male, age 6 weeks
TEST_CONTEXT: in vivo, po, 300 mg/kg, […], tissue Blood, route gavage, dose level Middle, time 28 day
Listing of entries alongside the reported Bas.
# unit: % | format: bare number

[
  {
    "MOLECULE": "O=C(O)c1ccccc1Nc1ccccc1",
    "MEASURED_PROPERTY": "Bas",
    "VALUE_OBSERVED": 0.4
  }
]

Which Bas value belongs to CCCCNC(=O)NS(=O)(=O)c1ccc(C)cc1 [TOLBUTAMIDE] ?
0.6

Now the molecule CC(S)C(=O)NCC(=O)O (centres undefined)
0

Next record, please: "CC(=O)[C@@]1(O)CC[C@H]2[C@@H]3C=C(Cl)C4=CC(=O)CC[C@]4(C)[C@H]3CC[C@@]21C"
0

====

Recorded TERMINAL_BW values for a group of compounds are listed next.
Species: Rattus norvegicus
PROTOCOL_DETAILS: Open TG-GATES - Regimen: Single
Assay type: toxicity, organism-based, Sprague-Dawley
Design: regimen Single, gender Male, age 6 weeks
TEST_CONTEXT: in vivo, po, 0 mg/kg, 6 h, route gavage, dose level Control
Please answer using the number first and the unit second.

[
  {
    "COMPOUND": "O=c1ccc2ccccc2o1",
    "MEASURED_PROPERTY": "TERMINAL_BW",
    "VALUE_OBSERVED": "179.5 g"
  },
  {
    "COMPOUND": "NS(=O)(=O)c1cc(C(=O)O)c(NCc2ccco2)cc1Cl [FUROSEMIDE]",
    "MEASURED_PROPERTY": "TERMINAL_BW",
    "VALUE_OBSERVED": "207.5 g"
  },
  {
    "COMPOUND": "O=C(O)c1ccccc1Nc1ccccc1",
    "MEASURED_PROPERTY": "TERMINAL_BW",
    "VALUE_OBSERVED": "204.2 g"
  },
  {
    "COMPOUND": "CN(C)CCCN1c2ccccc2Sc2ccc(Cl)cc21",
    "MEASURED_PROPERTY": "TERMINAL_BW",
    "VALUE_OBSERVED": "217.9 g"
  },
  {
    "COMPOUND": "CCN(CC)C(=S)SSC(=S)N(CC)CC",
    "MEASURED_PROPERTY": "TERMINAL_BW",
    "VALUE_OBSERVED": "208.9 g"
  }
]

What measured TERMINAL_BW goes with "CCO" ?
207 g

One more compound: "COc1cc2ncnc(Nc3ccc(F)c(Cl)c3)c2cc1OCCCN1CCOCC1"
212.6 g

// repeat for "COc1ccc([C@@H]2Sc3ccccc3N(CCN(C)C)C(=O)[C@@H]2OC(C)=O)cc1" and report
181.1 g

Request: CC(S)C(=O)NCC(=O)O (stereo not given)
208.1 g

And for CN(CCOc1ccc(CC2SC(=O)NC2=O)cc1)c1ccccn1.O=C(O)/C=C\C(=O)O (stereo not given) [ROSIGLITAZONE MALEATE] ?
205.9 g
